Tested target: GMPPNP-loaded KRAS G12C (Homo sapiens, UniProt P01116, G12C)
Sequence (P01116 1-188 isoform P01116-2 G12C): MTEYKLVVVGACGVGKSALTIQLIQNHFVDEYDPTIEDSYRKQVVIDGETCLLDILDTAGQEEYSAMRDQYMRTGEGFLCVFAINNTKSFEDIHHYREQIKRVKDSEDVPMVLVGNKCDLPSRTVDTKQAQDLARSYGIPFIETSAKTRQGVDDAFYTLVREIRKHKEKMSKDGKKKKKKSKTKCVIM
Assay name: KRAS G12C RAF Disruption Assay (HTRF)
Condition notes: recombinant GMPPNP-loaded KRAS G12C (5 nM), 20 min with compound; GST-RAF1 RBD (9 nM); HTRF signal; read-out: KRASG12C RAF Disruption Assay (IC50)
This listing pairs molecules with measured pIC50.
Note: pIC50 values are expressed as the negative base-10 logarithm of concentration in M.

Consider the worked cases shown below.
molecule=CN(c1nc(OC[C@@]23CCCN2C[C@H](F)C3)nc2c(F)c(-c3c(F)cc(F)c4sc(N)nc34)ncc12)[C@@H]1CCN(C(=O)/C(F)=C/c2ccccn2)C1 tested_target="GMPPNP-loaded KRAS G12C (Homo sapiens, UniProt P01116, G12C)" reported_result=8.30
molecule=N#CC[C@H]1CN(c2nc(OC[C@@]34CCCN3C[C@H](F)C4)nc3c(F)c(-c4ccccc4C4CCC4)ncc23)CCN1C(=O)/C(F)=C/c1nccs1 tested_target="GMPPNP-loaded KRAS G12C (Homo sapiens, UniProt P01116, G12C)" reported_result=7.21

Data request, read-out pIC50, for C#Cc1cccc2cccc(-c3ncc4c(N(C)C5CCN(C(=O)/C(F)=C/c6ccccn6)C5C)nc(OC[C@@]56CCCN5C[C@H](F)C6)nc4c3F)c12 (single isomer, unassigned) [Example 74 trans isomer 2]
6.96

Again, but for C#Cc1c(F)ccc2cc(O)cc(-c3ncc4c(N5C[C@H]6CC[C@@H](C5)N6C(=O)/C(F)=C/c5cncc(C)n5)nc(OC[C@@]56CCCN5C[C@H](F)C6)nc4c3F)c12
6.77

* * *

Tested target: GMPPNP-loaded KRAS G12C (Homo sapiens, UniProt P01116, G12C)
Assay name: KRAS G12C RAF Disruption Assay (HTRF)
Condition notes: recombinant GMPPNP-loaded KRAS G12C (5 nM), 20 min with compound; GST-RAF1 RBD (9 nM); HTRF signal; read-out: KRASG12C RAF Disruption Assay (IC50)
Experimental: KRAS^G12C RAF Disruption Assay This is a functional assay that measures activity of compounds against KRAS-G12C^(ON), i.e., the active form of KRAS G12C. […] HTRF signal was measured (PerkinElmer Envision), the signal ratio (λem 520/λem 495) was calculated, and IC50 values were calculated from the dose-response curve.
Endpoint: log10 IC50 (log10 of the value in µM)
Note: values are log10 of IC50 expressed in µM.

molecule=CCc1cccc2cccc(-c3ncc4c(N5CCN(C(=O)/C(F)=C/c6nccs6)[C@@H](CC#N)C5)nc(OC[C@@H]5CCCN5C)nc4c3F)c12 reported_result=-0.96

Provide value of log10 IC50 for this record tested with GMPPNP-loaded KRAS G12C (Homo sapiens, UniProt P01116, G12C): C#Cc1cccc2cccc(-c3ncc4c(N5CCN(C(=O)/C(F)=C/c6nccs6)C[C@@H]5C)nc(OC[C@@]56CCCN5C[C@H](F)C6)nc4c3F)c12
-0.52

Again, but for C#Cc1cccc2cccc(-c3ncc4c(N(C)C5CCN(C(=O)/C(F)=C/c6nccs6)C5C)nc(OC[C@@]56CCCN5C[C@H](F)C6)nc4c3F)c12 (single isomer, unassigned) [Example 73 cis isomer 1]
-0.96

Again, but for N#Cc1cccc2cccc(-c3ncc4c(N5CCN(C(=O)/C(F)=C/c6nccs6)CC5)nc(OC[C@@]56CCCN5C[C@H](F)C6)nc4c3F)c12
-0.08

Again, but for CN1CCC[C@H]1COc1nc(N2CCN(C(=O)/C(F)=C/c3ncccn3)[C@@H](CC#N)C2)c2cnc(-c3cccc4cccc(Cl)c34)c(F)c2n1
-1.05

Again, but for C#Cc1c(F)ccc2cc(O)cc(-c3ncc4c(N5CCN(C(=O)/C(F)=C/c6ccccn6)C[C@@H]5C)nc(OC[C@@]56CCCN5C[C@H](F)C6)nc4c3F)c12
-2.35

Again, but for C#Cc1c(F)ccc2cc(O)cc(-c3ncc4c(N5C[C@H]6CC[C@@H](C5)N6C(=O)/C(F)=C/c5ncco5)nc(OC[C@@]56CCCN5C[C@H](F)C6)nc4c3F)c12
-0.59

* * *

Tested target: GMPPNP-loaded KRAS G12C (Homo sapiens, UniProt P01116, G12C)
Assay name: KRAS G12C RAF Disruption Assay (HTRF)
Condition notes: recombinant GMPPNP-loaded KRAS G12C (5 nM), 20 min with compound; GST-RAF1 RBD (9 nM); HTRF signal; read-out: KRASG12C RAF Disruption Assay (IC50)
Endpoint: IC50 (nM)
Give just the number in nM; leave the unit off.

Consider the worked cases shown below.
smiles_repr=C#Cc1c(F)ccc2cc(O)cc(-c3ncc4c(N5C[C@H]6CC[C@@H](C5)N6C(=O)/C(F)=C/c5cccc(OC)n5)nc(OC[C@@]56CCCN5C[C@H](F)C6)nc4c3F)c12 reported_result=2600
smiles_repr=C#Cc1c(F)ccc2cc(O)cc(-c3ncc4c(N5CCN(C(=O)/C(F)=C/c6nccs6)CC5)nc(OC[C@]56CCC[C@H]5N(C)CCC6)nc4c3F)c12 reported_result=2

Data request, read-out IC50, for N#CC[C@H]1CN(c2nc(OC[C@@]34CCCN3C[C@H](F)C4)nc3c(F)c(-c4cc(F)ccc4F)ncc23)CCN1C(=O)/C(F)=C/c1nccs1
760

* * *

This listing pairs molecules with measured IC50.
Tested target: GMPPNP-loaded KRAS G12C (Homo sapiens, UniProt P01116, G12C)
Assay name: KRAS G12C RAF Disruption Assay (HTRF)
Condition notes: recombinant GMPPNP-loaded KRAS G12C (5 nM), 20 min with compound; GST-RAF1 RBD (9 nM); HTRF signal; read-out: KRASG12C RAF Disruption Assay (IC50)
Give just the number in nM; leave the unit off.

Consider the worked cases shown below.
smiles_repr=N#CC[C@H]1CN(c2nc(OC[C@@]34CCCN3C[C@H](F)C4)nc3c(F)c(-c4csc5ccccc45)ncc23)CCN1C(=O)/C(F)=C/c1ccccn1 tested_target="GMPPNP-loaded KRAS G12C (Homo sapiens, UniProt P01116, G12C)" endpoint=IC50 uom=nM reported_result=430
smiles_repr=C#Cc1c(F)ccc2cccc(-c3ncc4c(N5CCN(C(=O)/C(F)=C/c6ccccn6)CC5)nc(OC[C@@]56CCCN5C[C@H](F)C6)nc4c3F)c12 tested_target="GMPPNP-loaded KRAS G12C (Homo sapiens, UniProt P01116, G12C)" endpoint=IC50 uom=nM reported_result=64
smiles_repr=C#Cc1cccc2cccc(-c3ncc4c(N5CCN(C(=O)/C(F)=C/c6ccccn6)CC5)nc(OC[C@@]56CCCN5C[C@H](F)C6)nc4c3F)c12 tested_target="GMPPNP-loaded KRAS G12C (Homo sapiens, UniProt P01116, G12C)" endpoint=IC50 uom=nM reported_result=100

Data request, read-out IC50, for C#Cc1cccc2cccc(-c3ncc4c(N5C[C@H](C)N(C(=O)/C(F)=C/c6ccccn6)C[C@H]5C)nc(OC[C@@]56CCCN5C[C@H](F)C6)nc4c3F)c12
2600

Again, but for C#Cc1c(F)ccc2cc(O)cc(-c3ncc4c(N5C[C@H]6CC[C@@H](C5)N6C(=O)/C(F)=C/c5cc(C)ccn5)nc(OC[C@@]56CCCN5C[C@H](F)C6)nc4c3F)c12
19

* * *

Tested target: GMPPNP-loaded KRAS G12C (Homo sapiens, UniProt P01116, G12C)
Assay name: KRAS G12C RAF Disruption Assay (HTRF)
Condition notes: recombinant GMPPNP-loaded KRAS G12C (5 nM), 20 min with compound; GST-RAF1 RBD (9 nM); HTRF signal; read-out: KRASG12C RAF Disruption Assay (IC50)
Method: KRAS^G12C RAF Disruption Assay This is a functional assay that measures activity of compounds against KRAS-G12C^(ON), i.e., the active form of KRAS G12C. […] HTRF signal was measured (PerkinElmer Envision), the signal ratio (λem 520/λem 495) was calculated, and IC50 values were calculated from the dose-response curve.
Endpoint: log10(IC50) (log10 of the value in nM)
Note: values are log10 of IC50 expressed in nM.

Consider the worked cases shown below.
compound=Cn1ncc2cccc(-c3ncc4c(N5CCN(C(=O)/C(F)=C/c6ccccn6)CC5)nc(OC[C@@]56CCCN5C[C@H](F)C6)nc4c3F)c21 endpoint=log10(IC50) reported_result=3.67
compound=C#Cc1cccc2cccc(-c3ncc4c(N5C[C@H]6CN(C(=O)/C(F)=C/c7ccccn7)C[C@H]6C5)nc(OC[C@@]56CCCN5C[C@H](F)C6)nc4c3F)c12 endpoint=log10(IC50) reported_result=3.72
compound=C#Cc1c(F)ccc2cc(O)cc(-c3ncc4c(N5C[C@H]6CC[C@@H](C5)N6C(=O)/C(F)=C/c5nnc(C)s5)nc(OC[C@@]56CCCN5C[C@H](F)C6)nc4c3F)c12 endpoint=log10(IC50) reported_result=1.34

Provide value of log10(IC50) for this record tested with GMPPNP-loaded KRAS G12C (Homo sapiens, UniProt P01116, G12C): N#CC[C@H]1CN(c2nc(OC[C@@]34CCCN3C[C@H](F)C4)nc3c(F)c(-c4cc(F)ccc4F)ncc23)CCN1C(=O)/C(F)=C/c1ccccn1
2.94

Again, but for N#CC[C@H]1CN(c2nc(OC[C@@]34CCCN3C[C@H](F)C4)nc3c(F)c(-c4csc5ccccc45)ncc23)CCN1C(=O)/C(F)=C/c1nccs1
2.60

Again, but for C#Cc1c(F)ccc2cc(O)cc(-c3ncc4c(N5CCN(C(=O)/C(F)=C/c6nccs6)C[C@@H]5C)nc(OC[C@@]56CCCN5C[C@H](F)C6)nc4c3F)c12
0.85

Again, but for C#Cc1cccc2cccc(-c3ncc4c(N5CCC6(CCN6C(=O)/C(F)=C/c6nccs6)C5)nc(OC[C@@]56CCCN5C[C@H](F)C6)nc4c3F)c12 (single isomer, unassigned)
2.79
